From: PubChem BioAssay (NCI)

Test: NCI Yeast Anticancer Drug Screen. Data for the rad50 strain (AID 155);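 further: 0% = growth of vehicle-only cultures of the same strain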
Settings: S. cerevisiae rad50 strain growth inhibition; at 50.0 µM
Compounds without any hit were thinned out: in the full panel of roughly 79,000, 15% have a hit. Active and inactive are the calls of the source. No stated cut-off is given here; in the data, active means growth inhibition above about 70%; inactive means the rest.
Response enum: active, inactive

**Q:** Short answer needed: outcome of this test for Cc1ccccc1N1C(=O)c2ccccc2C1=O ?
**A:** inactive

**Q:** Param item: C[n+]1c(-c2ccc(/C=N/Nc3n[nH]c(=S)n3/N=C/c3ccc(-c4cn5ccsc5[n+]4C)cc3)cc2)cn2ccsc21
**A:** active

**Q:** // query: COCCn1cc(F)c(=O)[nH]c1=O
**A:** inactive

**Q:** # iterate: C/C(=N/NC(=S)N(C)C)c1ccccc1O
**A:** inactive

**Q:** Request: CCC(=O)NC1=CCC(C(C)(C)C)CC1 (stereo not given)
**A:** inactive

---

Assay: NCI Yeast Anticancer Drug Screen. Data for the rad50 strain (AID 155);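 further: 0% = growth of vehicle-only cultures of the same strain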
Conditions: S. cerevisiae rad50 strain growth inhibition; at 50.0 µM; stronger effect = higher value
About 79,000 compounds went through this panel and 15% of them were active in at least one assay; those are over-represented in the sample as a whole. Where a SMILES comes first, the peptide text is derived from it. The star is where a group is joined. Fmoc = O=C(OCC1c2ccccc2-c2ccccc21)*; Boc = CC(C)(C)OC(=O)*
valueKind: growth inhibition (%)
I only need the number, in %, no unit after it.

**Q:** Given CSc1ccc(/C=C2\CN(C)C/C(=C\c3ccc(SC)cc3)C2=O)cc1 , state its recorded growth inhibition.
**A:** 73.5

**Q:** Record: C/C=C(\C)CC/C=C/CO[Si](C)(C)C(C)(C)C
**A:** -4.15

**Q:** Same again, this time with COc1ccc(-c2cc(-c3ccc(OC)cc3OC)[n+](C)c(-c3ccc(OC)cc3OC)c2)cc1
**A:** 90

**Q:** Subsequent entry: CC(C)COC(=O)c1ccc(N=Cc2ccc(C=Nc3ccc(C(=O)OCC(C)C)cc3)cc2)cc1
**A:** 31.6

**Q:** Please give the result for CC/C(Cl)=N\OC(=O)Nc1ccc(F)c(Cl)c1 too.
**A:** 58.5

**Q:** Moving on to COc1ccc2c(C(=O)c3ccccc3)c3[n+](cc2c1OC)CCc1cc2c(cc1-3)OCO2
**A:** 65.7

**Q:** // repeat for CC(=O)Nc1ccc(-c2nnc(SCC(=O)Nc3ccc([N+](=O)[O-])cc3)o2)cc1 and report
**A:** 33.4

**Q:** Next: O=C1c2ccc3ccccc3c2CCC1[n+]1ccc2ccccc2c1 (stereo not given)
**A:** 53.4

**Q:** Further, for Cc1ccc(-c2oc(C=Nc3ccccc3)c([N+](=O)[O-])c2-c2ccc(C)cc2)cc1 ?
**A:** 73.3

**Q:** Check COc1ccc(C(c2c(O)c3ccccc3oc2=O)N2CCOCC2)c(OC)c1 (stereo not given) too.
**A:** 33.4

**Q:** And for COc1ccccc1C1C(Cl)C(=O)N1n1cnc2ccccc2c1=O (stereo not given) ?
**A:** 83.9

**Q:** Follow-up entry: COC(=O)C1(Cc2ccccc2)Cc2c(C)ccc(C)c2C1=O (stereo not given)
**A:** 43.1

**Q:** Okay, and O=C(NNc1ccccc1)c1cccc([N+](=O)[O-])c1 ?
**A:** 98.2

**Q:** Same question, COc1cc(OC)cc(C2SCC(=O)N2c2nncs2)c1 (stereo not given) this time
**A:** 20.2

**Q:** Next compound: O=C1NC(O)c2cccc(Cl)c2O1 (stereo not given)
**A:** 88.8

**Q:** Follow-up item: CCCCCCCCNS(=O)(=O)c1ccc(N)cc1
**A:** 80.8

**Q:** Another compound to look at: Cn1c2c(c3nc(N)nc(N)c3c1=O)CCc1ccccc1-2
**A:** 72.8

**Q:** Subsequent entry: O=C(O)Cc1cccc2cc3c(ccc4ccccc43)cc12
**A:** 47.7

**Q:** Next compound: CC(C)(C)OC(=O)NCCCCC(NC(=O)OCC1c2ccccc2-c2ccccc21)C(=O)N1CCCC1C(=O)NCC(N)=O (stereo not drawn) (Fmoc-Lys(Boc)-Pro-Gly-NH2; configuration not given here)
**A:** 86.8

**Q:** Request: O=C(O)c1c([N+](=O)[O-])cc(C(F)(F)F)cc1[N+](=O)[O-]
**A:** -1.7
